Reference source for all entries: the supplement of paper PMC10567573

B1: KLHL12 (parent)
chain: LDYTADEDGVWYSVAPMNVRRGLA

Variants of: B1
PROTOCOL NOTES: protein stability index of a GFP-peptide fusion (GPS, HEK-293T) (PSI 1-6); higher = more stable;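 further: lentivirally expressed fusions sorted by FACS into six bins by GFP to DsRed ratio, PSI derived from sequencing read proportions per bin multiplied by bin number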
APPLIED CONDITIONS: c terminus: a fixed tail appended
Is protein stability index at least 3? Then Fulfilled. If not, Not fulfilled.

QUERY: State whether the measured protein stability index reaches 3, counting equality as reaching it, for "N18L"
RESULT: Not fulfilled

QUERY: State whether the measured protein stability index reaches 3, counting equality as reaching it, for "D8E"
RESULT: Not fulfilled

QUERY: State whether the measured protein stability index reaches 3, counting equality as reaching it, for "A5H"
RESULT: Not fulfilled

QUERY: State whether the measured protein stability index reaches 3, counting equality as reaching it, for "G22W"
RESULT: Not fulfilled

QUERY: State whether the measured protein stability index reaches 3, counting equality as reaching it, for "V19C"
RESULT: Not fulfilled

QUERY: State whether the measured protein stability index reaches 3, counting equality as reaching it, for "R20T"
RESULT: Not fulfilled

QUERY: State whether the measured protein stability index reaches 3, counting equality as reaching it, for "M17P"
RESULT: Not fulfilled

QUERY: State whether the measured protein stability index reaches 3, counting equality as reaching it, for "S13N"
RESULT: Not fulfilled

QUERY: State whether the measured protein stability index reaches 3, counting equality as reaching it, for "S13G"
RESULT: Not fulfilled

QUERY: State whether the measured protein stability index reaches 3, counting equality as reaching it, for "G22D"
RESULT: Not fulfilled

QUERY: State whether the measured protein stability index reaches 3, counting equality as reaching it, for "R20I"
RESULT: Not fulfilled

QUERY: State whether the measured protein stability index reaches 3, counting equality as reaching it, for "G22L"
RESULT: Not fulfilled

QUERY: State whether the measured protein stability index reaches 3, counting equality as reaching it, for "D6H"
RESULT: Not fulfilled

QUERY: State whether the measured protein stability index reaches 3, counting equality as reaching it, for "V14E"
RESULT: Fulfilled

QUERY: State whether the measured protein stability index reaches 3, counting equality as reaching it, for "A15I"
RESULT: Not fulfilled

QUERY: State whether the measured protein stability index reaches 3, counting equality as reaching it, for "R21W"
RESULT: Not fulfilled

QUERY: State whether the measured protein stability index reaches 3, counting equality as reaching it, for "D6Q"
RESULT: Not fulfilled

QUERY: State whether the measured protein stability index reaches 3, counting equality as reaching it, for "D2M"
RESULT: Not fulfilled

QUERY: State whether the measured protein stability index reaches 3, counting equality as reaching it, for "D2Q"
RESULT: Not fulfilled

QUERY: State whether the measured protein stability index reaches 3, counting equality as reaching it, for "Y12D"
RESULT: Fulfilled

QUERY: State whether the measured protein stability index reaches 3, counting equality as reaching it, for "N18E"
RESULT: Not fulfilled

QUERY: State whether the measured protein stability index reaches 3, counting equality as reaching it, for "S13E"
RESULT: Not fulfilled

QUERY: State whether the measured protein stability index reaches 3, counting equality as reaching it, for "N18V"
RESULT: Not fulfilled

QUERY: State whether the measured protein stability index reaches 3, counting equality as reaching it, for "A5K"
RESULT: Not fulfilled

QUERY: State whether the measured protein stability index reaches 3, counting equality as reaching it, for "L23A"
RESULT: Not fulfilled

QUERY: State whether the measured protein stability index reaches 3, counting equality as reaching it, for "R21P"
RESULT: Not fulfilled

QUERY: State whether the measured protein stability index reaches 3, counting equality as reaching it, for "R20M"
RESULT: Not fulfilled

QUERY: State whether the measured protein stability index reaches 3, counting equality as reaching it, for "Y12P"
RESULT: Fulfilled

QUERY: State whether the measured protein stability index reaches 3, counting equality as reaching it, for "D6I"
RESULT: Not fulfilled

QUERY: State whether the measured protein stability index reaches 3, counting equality as reaching it, for "W11L"
RESULT: Fulfilled

QUERY: State whether the measured protein stability index reaches 3, counting equality as reaching it, for "D8T"
RESULT: Not fulfilled

QUERY: State whether the measured protein stability index reaches 3, counting equality as reaching it, for "W11F"
RESULT: Not fulfilled

QUERY: State whether the measured protein stability index reaches 3, counting equality as reaching it, for "D2H"
RESULT: Not fulfilled

QUERY: State whether the measured protein stability index reaches 3, counting equality as reaching it, for "W11D"
RESULT: Fulfilled

QUERY: State whether the measured protein stability index reaches 3, counting equality as reaching it, for "G22I"
RESULT: Not fulfilled

QUERY: State whether the measured protein stability index reaches 3, counting equality as reaching it, for "Y3K"
RESULT: Fulfilled

QUERY: State whether the measured protein stability index reaches 3, counting equality as reaching it, for "M17N"
RESULT: Not fulfilled

QUERY: State whether the measured protein stability index reaches 3, counting equality as reaching it, for "G22H"
RESULT: Not fulfilled

QUERY: State whether the measured protein stability index reaches 3, counting equality as reaching it, for "A24W"
RESULT: Not fulfilled

QUERY: State whether the measured protein stability index reaches 3, counting equality as reaching it, for "V10F"
RESULT: Not fulfilled
